Target: Human CXCR4 transfected HEK293 cells (Homo sapiens, UniProt P61073)
Sequence (P61073 whole entry): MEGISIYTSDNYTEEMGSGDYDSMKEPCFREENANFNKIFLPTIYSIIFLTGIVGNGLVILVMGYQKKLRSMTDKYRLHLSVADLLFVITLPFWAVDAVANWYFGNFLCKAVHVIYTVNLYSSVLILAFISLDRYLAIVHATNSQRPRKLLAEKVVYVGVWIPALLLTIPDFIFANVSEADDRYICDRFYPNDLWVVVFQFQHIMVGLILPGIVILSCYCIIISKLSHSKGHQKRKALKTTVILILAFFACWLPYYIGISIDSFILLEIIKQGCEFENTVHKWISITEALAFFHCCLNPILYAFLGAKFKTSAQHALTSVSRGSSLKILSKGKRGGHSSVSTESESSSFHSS
Experiment: CXCR4 functional calcium assay (calcium flux FLIPR, antagonism of SDF1 response)
Conditions: CXCR4 functional activity, antagonism of SDF1 (EC50 concentration), read-out: CXCR4 fKi
Entries annotated with measured Ki

Here are 3 compounds together with their reported answers.
- compound: "CC(C)CN(C)C(=O)c1cccc(N2CCCN(C3CCN(C(C)C)CC3)CC2)n1"
  Ki: "500 to 1000 nM"
- compound: "O=C(Nc1ccncc1)c1cccc(N2CCN(C3CCCN(Cc4ccc(F)cc4Cl)CC3)CC2)n1 (stereo not shown)"
  Ki: "20 to 100 nM"
- compound: "O=C(NCC1CC1)c1cccc(N2CCCN(C3CCN(Cc4ccccc4)CC3)CC2)n1"
  Ki: "500 to 1000 nM"

(Q) So what Ki did CCc1nc(-c2cccc(N3CCCN(C4CCN(C(C)C)CC4)CC3)n2)[nH]c1CC get with Human CXCR4 transfected HEK293 cells (Homo sapiens, UniProt P61073)?
(A) 20 to 100 nM

* * *

Biological target: Human CXCR4 transfected HEK293 cells (Homo sapiens, UniProt P61073)
Assay: CXCR4 functional calcium assay (calcium flux FLIPR, antagonism of SDF1 response)
Settings: CXCR4 functional activity, antagonism of SDF1 (EC50 concentration), read-out: CXCR4 fKi
pKi: −log10 of the molar value.
pKi reference

Solved entries:
- compound: "CC(C)N1CCC(N2CCCN(c3cccc(-c4noc(-c5cccnc5)n4)n3)CC2)CC1 [Example 166]"
  result: "6.30 to 7.00"
- compound: "CC(C)N1CCC(N2CCCN(c3cccc(-c4noc(-c5ccncc5)n4)n3)CC2)CC1 [Example 167]"
  result: "7.00 to 7.70"
- compound: "Cc1nc(-c2cccc(N3CCCN(C4CCN(C(C)C)CC4)CC3)n2)no1 [Example 153]"
  result: "6.00 to 6.30"

(Q) Request body: readout pKi, system Human CXCR4 transfected HEK293 cells (Homo sapiens, UniProt P61073), query CCCc1cnc(-c2cccc(N3CCCN(C4CCN(C(C)C)CC4)CC3)n2)[nH]1 [Example 109] . Return the value.
(A) 7.00 to 7.70

(Q) Lab note: need pKi for CC(C)N1CCC(N2CCCN(c3cccc(C(=O)NCc4cccnc4)n3)CC2)CC1C (centres unmarked) [Example 215] on Human CXCR4 transfected HEK293 cells (Homo sapiens, UniProt P61073), anyone have it?
(A) 7.00 to 7.70

(Q) Reported pKi for Human CXCR4 transfected HEK293 cells (Homo sapiens, UniProt P61073), given [2H]C1([2H])CCN(C2CCN(Cc3ccccc3Cl)CC2)CCN1c1cccc(C(=O)Nc2ccncc2)n1 [Example 180] ?
(A) > 7.70

(Q) Hello, I am looking for reported pKi with Human CXCR4 transfected HEK293 cells (Homo sapiens, UniProt P61073) for CC(C)c1nc(-c2cccc(N3CCCN(C4CCN(C(C)C)CC4)CC3)n2)no1 [Example 158] . Could you help?
(A) 6.00 to 6.30

(Q) What value of pKi on Human CXCR4 transfected HEK293 cells (Homo sapiens, UniProt P61073) does O=C(Nc1ccncc1)c1cccc(N2CCCN(C3CCN(C4CCCC4)CC3)CC2)n1 [Example 83] have?
(A) > 7.70

(Q) // fetch Human CXCR4 transfected HEK293 cells (Homo sapiens, UniProt P61073) pKi for CC(C)N1CCC(N2CCCN(c3cccc(-c4nc5ccccc5s4)n3)CC2)CC1 [Example 151]
(A) 6.30 to 7.00

(Q) I'm curious: which pKi was measured for O=C(NCc1cccnc1)c1cccc(N2CCCN(C3CCN(Cc4ccccc4Cl)CC3)CC2)n1 [Example 55] tested on Human CXCR4 transfected HEK293 cells (Homo sapiens, UniProt P61073)?
(A) 7.00 to 7.70

(Q) For Human CXCR4 transfected HEK293 cells (Homo sapiens, UniProt P61073), provide pKi of C[C@H](N1CCC(N2CCCN(c3cccc(C(=O)NCc4nccs4)n3)CC2)CC1)C(F)(F)F [Example 94] please.
(A) 6.30 to 7.00

(Q) Given the entry CCCCc1cnc(-c2cccc(N3CCCN(C4CCN(C(C)C)CC4)CC3)n2)o1 [Example 171] , what pKi was observed with Human CXCR4 transfected HEK293 cells (Homo sapiens, UniProt P61073)?
(A) 6.00 to 6.30

(Q) Find the measured pKi: item CC(C)N1CCC(NCCCNc2cccc(C(=O)Nc3ccncc3)n2)CC1 [Example 239] , target or system Human CXCR4 transfected HEK293 cells (Homo sapiens, UniProt P61073).
(A) 6.30 to 7.00

(Q) Which pKi is reported with Human CXCR4 transfected HEK293 cells (Homo sapiens, UniProt P61073) for this entry: O=C(NCC1CC1)c1ccnc(N2CCCN(C3CCN(Cc4ccccc4Cl)CC3)CC2)c1 [Example 269] ?
(A) 6.30 to 7.00

(Q) # value lookup — system Human CXCR4 transfected HEK293 cells (Homo sapiens, UniProt P61073), readout pKi, item CC(C)N1CCC(N2CCCN(c3cccc(-c4ncc(C5CC5)[nH]4)n3)CC2)C(F)C1 (centres unmarked) [Example 212]
(A) 6.30 to 7.00

(Q) Report pKi for CCC(C)N1CCC(N2CCCN(c3cccc(C(=O)NCC4CC4)n3)CC2)CC1 (centres unmarked) [Example 65] tested on Human CXCR4 transfected HEK293 cells (Homo sapiens, UniProt P61073).
(A) > 7.70

(Q) # value lookup — system Human CXCR4 transfected HEK293 cells (Homo sapiens, UniProt P61073), readout pKi, item CC(C)N1CCC(N2CCCN(c3cccc(-c4cc5ccccc5[nH]4)n3)CC2)CC1 [Example 100]
(A) 7.00 to 7.70

Hello, the source for this data is patent US10995091B2, in case you need it.
